- METHOD DESCRIPTION: Water solubility at 20° C. and pH 6.5 (turbid appearance, 10 mg peptide in 10 ml de-mineralised water)
- Type: physicochemical
Ends that are not written are not given here.
ENDPOINT LABEL: Peptide category (water solubility)

SUBSTANCE	MEASURED RESULT
GSGGSG [GSGGSG]	Soluble peptides
DDDDDD [DDDDDD]	Soluble peptides
EAEWEY [EAEWEY]	Soluble peptides
AAAAAAAA [AAAAAAAA]	Insoluble peptides
LLLLLL [LLLLLL]	Insoluble peptides
VEWEME [VEWEME]	Soluble peptides

Data origin, for the record: patent US20090169700A1
